Collected IC50 values appear next to each entry.
test: In vitro inhibition of eucaryotic translation using […].; assay type: functional
Use µM as the unit, but write only the number.

C/C(N)=N/CCC[C@H](N)CC(=O)N(C)C1CN=C(NC(N)=O)NC1=O.Cl.Cl (some centres not stated)    0.6
CCNCCC[C@H](N)CC(=O)N(C)C1CN=C(NC(N)=O)NC1=O.Cl.Cl (some centres not stated)    7.6
CN(C(=O)C[C@@H](N)CC(O)CCN)C1CN=C(NC(N)=O)NC1=O.Cl.Cl (some centres not stated)    3.2
CN(C(=O)C[C@H](N)CCCN)C1CN=C(NC(N)=O)NC1=O.Cl.Cl (some centres not stated)    9.4
Br.Br.CN(C(=O)C[C@@H](N)CCCNC1=NCCN1)C1CN=C(NC(N)=O)NC1=O (some centres not stated)    9.4

IC50 in this record for CN(C(=O)C[C@@H](N)CCCCN)C1CN=C(NC(N)=O)NC1=O.Cl.Cl (some centres not stated) : 2.8

The recorded IC50 for entry CN(C(=O)C[C@@H](N)CCC/N=C(/N)S)C1CN=C(NC(N)=O)NC1=O.Cl (some centres not stated) equals 0.2

---

system: Staphylococcus aureus; assay: Minimum inhibitory concentration against Staphylococcus aureus in vitro.; type: functional
readout.type: log10 of MIC (log10 of the value in µg/mL)
Short version: log10 scale, MIC, µg/mL.

// known answers, use as guide
CN(C(=O)C[C@@H](N)CC(O)CCN)C1CN=C(NC(N)=O)NC1=O.Cl.Cl (stereo partly drawn)    -0.40
CC(N)CCC(N)CC(=O)N(C)C1CN=C(NC(N)=O)NC1=O.Cl.Cl (stereo not drawn)    -0.40
CN(C(=O)C[C@@H](N)CCN=C(N)N)C1CN=C(NC(N)=O)NC1=O.Cl.Cl (stereo partly drawn)    1.40
CN(C(=O)C[C@@H](N)CCCCN=C(N)N)C1CN=C(NC(N)=O)NC1=O.Cl.Cl (stereo partly drawn)    -0.70
CN(C(=O)C[C@@H](N)CCC(N)=O)C1CN=C(NC(N)=O)NC1=O.Cl (stereo partly drawn)    1.10

log10 of MIC reading for CN(C(=O)CC(N)CCCO)C1CN=C(NC(N)=O)NC1=O.Cl (stereo not drawn) : 2.00

What the record says about CN(C(=O)C[C@@H](N)CCCCN)C1CN=C(NC(N)=O)NC1=O.Cl.Cl (stereo partly drawn) : log10 of MIC is -1.30

Recorded result, C/N=C(/N)NCCC[C@H](N)CC(=O)N(C)C1CN=C(NC(N)=O)NC1=O.Cl.Cl (stereo partly drawn) , log10 of MIC: -0.10

---

We begin with a simple list: items and their reported IC50.
test: In vitro inhibition of eucaryotic translation using […].; assay type: functional
Field format: number, assumed nM, no unit text.

C/N=C(/N)NCCC[C@H](N)CC(=O)N(C)C1CN=C(NC(N)=O)NC1=O.Cl.Cl (stereo partly specified)    4500
CN(C(=O)C[C@@H](N)CCCCN=C(N)N)C1CN=C(NC(N)=O)NC1=O.Cl.Cl (stereo partly specified)    1600
CC(N)CCC(N)CC(=O)N(C)C1CN=C(NC(N)=O)NC1=O.Cl.Cl (stereo unspecified)    1200
CN(C(=O)C[C@@H](N)CCN=C(N)N)C1CN=C(NC(N)=O)NC1=O.Cl.Cl (stereo partly specified)    1200
CN(C(=O)C[C@@H](N)CCCN=C(N)N)C1CN=C(NC(N)=O)NC1=O.Cl.Cl (stereo partly specified)    170

Now take the following compound into account.
Field IC50 (entry CN(C(=O)C[C@@H](N)CCCN)C1CN=C(NC(N)=O)NC1=O.Cl.Cl (stereo partly specified) ) reads 3700
